# System: T-cell
# assay-comment: Immunostimulant activity in Balb/c mouse T cells assessed as ConA-induced cell proliferation at 10 uM after 48 hrs by MTT assay relative to control
# Type: ADME, cell-based
Records here are stratified by Activity; strata: band A: < 10%; band B: ≥ 10% and < 40%; band C: ≥ 40%

Some solved cases for reference:
compound: CCOC(=O)[C@H](C)c1ccc2c(C)cc(O)c(C=O)c2c1
cat: band C

compound: CC1=C(Cl)C=C[C@]2(C)CC[C@@H]3C(=C12)OC(=O)[C@H]3C
cat: band B

compound: Cc1cc(O)c(C)c2c1CCC(C(C)CO)C2O (configuration not stated)
cat: band B

compound: CC(=O)OCC(C)C1CCc2c(C)cc(OC(C)=O)c(C)c2C1O (configuration not stated)
cat: band B

compound: Cc1cc(O)c(C)c2c1CC[C@@H]([C@@H](C)C(=O)Nc1nccc(C)c1[N+](=O)[O-])C2
cat: band C

Exercise: Which class does Cc1cc(O)c(C)c2c1CC[C@@H]([C@@H](C)C(=O)O)C2 fall in?
Solution: band A

Exercise: Now the compound Cc1cc(O)c(C)c2c1CCC1C2OC(O)C1C (configuration not stated)
Solution: band B

Exercise: Now the compound CC1=C2[C@H]3OC(=O)[C@@H](C)[C@@H]3CC[C@@]2(C)C=CC1=O [SANTONIN]
Solution: band A
